- experiment summary: Free fraction by equilibrium dialysis, human plasma and homogenized human skin
- Type: in vitro ADME
- particulars: plasma, read-out: Mean free fraction in human plasma
- Protocol: The concentration of Compound A was measured in the epidermis, dermis, and plasma 24 hours post application. Dermal concentrations in minipigs dosed with 1.0% w/w topical formulation were 8× higher compared with dermal concentrations in minipigs dosed with the 0.1% topical formulation. […] Relatedly, the free fraction of Compound A in plasma and homogenized human skin was evaluated by equilibrium dialysis studies. […] In minipigs, the free fraction in plasma was measured at 3.1%.
measurement name: fraction unbound
Answers are plain numbers.

Using the record for `CCOc1c([C@H](C)n2nc(C)c3c(N)ncnc32)cc(Cl)c(F)c1[C@@H]1CNC(=O)C1` , report its fraction unbound. 0.074
